# Assay target: UniProtKB Q15GI4
# Sequence (Q15GI4 whole entry): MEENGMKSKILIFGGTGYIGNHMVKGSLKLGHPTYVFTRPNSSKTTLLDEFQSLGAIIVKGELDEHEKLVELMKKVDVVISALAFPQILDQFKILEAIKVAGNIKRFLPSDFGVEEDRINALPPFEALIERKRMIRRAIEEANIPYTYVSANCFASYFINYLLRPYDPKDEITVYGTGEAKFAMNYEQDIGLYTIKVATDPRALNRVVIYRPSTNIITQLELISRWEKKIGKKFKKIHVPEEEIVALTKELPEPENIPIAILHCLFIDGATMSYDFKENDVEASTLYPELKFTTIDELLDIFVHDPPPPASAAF
Property measured: Ki (µM)
Respond with the bare value in µM.

## Task // query Ki value for entry "CCOC(=O)[C@H]1C[C@@H]1c1ccc(O)c(OC)c1"
## Result 800
